attributeMeasured: melting point

In: Can you share its melting point? I mean this molecule: O=S(c1cn(-c2c(Cl)cc(C(F)(F)F)cc2Cl)c(Cl)n1)C(F)(F)F (stereo not drawn)
Out: 148 °C

In: Next record, please: CCOc1cc(-c2ccc3c(c2)C=C(C(=O)Nc2ccc(CN(C)C4CCOCC4)cc2)CCS3(=O)=O)ccc1C#N
Out: 244 to 247 °C

====

# melting point per entry

[[record]]
chemicalsmiles = "COc1ccc2c(Cc3c(Cl)cncc3Cl)nnc(-c3ccccc3)c2c1"
attributemeasured = "melting point"
measured = "206 to 208 °C"

[[record]]
chemicalsmiles = "c1ccc(-c2nnc(-c3ccccn3)o2)cc1"
attributemeasured = "melting point"
measured = "127 to 128 °C"

[[record]]
chemicalsmiles = "Cc1cn(-c2cc(C)c(N)c(Br)c2)c(C)n1"
attributemeasured = "melting point"
measured = "176 to 180 °C"


Next up:
In: Can you share its melting point? I mean this compound: N=C(Nc1cccc2ccccc12)Nc1cccc2ccccc12
Out: 210 to 211 °C

====

attributeMeasured: melting point

[[record]]
compound = "CCN(CC)CCOc1ccc2[nH]c3c([N+](=O)[O-])ccc(Cl)c3c(=O)c2c1"
measured = "148 to 151 °C"


In: Can you share its melting point? I mean this compound: CCOC(=O)c1cc(-c2csc(-c3ccnc(NC)c3)n2)c(=O)[nH]c1C(C)C
Out: > 230 °C

In: Next record, please: O=C1CCCc2c1[nH]c1ccc(Cl)cc21
Out: 226 °C

In: Next record, please: COc1ccccc1NC=C1C(=O)N(c2ccc(C(=O)O)cc2)N=C1C
Out: > 300 °C

In: Next record, please: CCCCN(CCCC)c1nc(-c2ccc(C(C)(C)C)cc2)cs1
Out: 48.5 to 49.5 °C

In: Next record, please: COC(=O)Cc1cccc(C(=O)c2ccccc2)c1N
Out: 52 to 54 °C

In: Next record, please: CCCCNC(=O)ONC(=O)Cc1ccc2c(C(=O)OCC)c(N)c(C(=O)OCC)c-2cc1
Out: 178 to 179 °C

In: Next record, please: CC1=C(CCN(O)C(N)=O)c2cc(F)ccc2/C1=C\c1ccc(S(C)(=O)=O)cc1
Out: 187 °C

In: Next record, please: CC(O)Cn1nc(-c2cnc3[nH]cc(C(=O)NC(C)C(=O)N4CC(C#N)C4)c3n2)c2ccc(Cl)cc21 (stereo not drawn)
Out: 160 to 165 °C

In: Next record, please: COc1ccc(C=CC(=O)CN2CCOCC2)cc1
Out: 78 °C

In: Next record, please: c1ccc2scnc2c1
Out: 134 to 135 °C

In: Next record, please: COc1ccc2nc(Oc3c(Cl)cc(NS(=O)(=O)c4ccc(C(F)(F)F)cc4Cl)cc3Cl)sc2c1
Out: 164 to 165 °C

In: Next record, please: COc1cc2c(cc1OC)[C@@H]1CCCC[C@@H]1N=C2c1ccc(N(S(=O)(=O)c2ccc(C)cc2)S(=O)(=O)c2ccc(C)cc2)cc1 (racemic)
Out: 120 to 130 °C

In: Next record, please: CCOCn1cc(-c2ccnc(N)n2)c2c(OC)cc(Br)nc21
Out: > 210 °C

In: Next record, please: O=c1ccc(-c2c(-c3ccccc3)nn3ccccc23)nn1C1CCN(Cc2ccccc2)CC1
Out: 184 to 185 °C

In: Next record, please: CC(=O)Nc1ccc(OCCN(CC(=O)c2ccc(OCc3ccccc3)c(OCc3ccccc3)c2)Cc2ccccc2)cc1
Out: 104 to 106 °C

In: Next record, please: CC(C)N(C(C)C)S(=O)(=O)NC(=O)c1nsc2ccc(-n3c(=O)cc(C(F)(F)F)n(C)c3=O)cc12
Out: 214 °C

In: Next record, please: COc1ccc(-c2nnn(-c3cc(C)on3)c2N)cc1
Out: 136 to 141 °C

In: Next record, please: CCOC(=O)C1CCCCN1C(=O)Nc1cc(C(=O)OC(C)C)c(Cl)cc1F (stereo not drawn)
Out: 83 to 85 °C

In: Next record, please: CCCC(=O)c1sc(NC(=O)c2ccncc2)nc1-c1ccco1
Out: 191 to 194 °C

In: Next record, please: O=C(c1ccccc1C(c1ccc(O)cc1)c1ccc(O)cc1)N1CC2CCC(CC2)C1
Out: 164 to 166 °C

In: Next record, please: CNC(=O)Nc1snc(S(C)=O)c1C(N)=O (stereo not drawn)
Out: > 355 °C
